growth reference
- Test system: 786-0 renal
- method-description: NCI-60 one-dose screen, 48 h (100 = growth as untreated, 0 = no growth, -100 = all killed)
- measurement-parameters: 10 µM unless noted
Compounds without any hit were thinned out: in the full panel of roughly 83,000, 20% have a hit. Activity calls are given as the source filed them. How the source made its calls: active means growth percent below 10; inactive means the rest.

Sample answers from the record:
{"compound": "COc1cc(-c2nc(-c3ccc(-c4nc5ccc(F)cc5[nH]4)cc3)no2)cc(OC)c1OC", "study-target": "786-0 renal", "growth": "46.4% (inactive)"}
{"compound": "CC(C)[C@@]12C[C@@H](OC(=O)C3CO3)[C@@](C)(O1)[C@@H]1CC[C@@H](C)[C@H]1[C@@H]2OC(=O)/C=C/c1ccccc1 (stereo not given in full)", "study-target": "786-0 renal", "growth": "95.5% (inactive)"}
{"compound": "CCCNCCC(C)=O", "study-target": "786-0 renal", "growth": "110% (inactive)"}
{"compound": "CCOC(OCC)c1cnc2nc(NC(C)=O)[nH]c(=O)c2n1", "study-target": "786-0 renal", "growth": "97.5% (inactive)"}
{"compound": "O=[N+]([O-])c1ccc(SSc2ccc([N+](=O)[O-])cc2Cl)c(Cl)c1", "study-target": "786-0 renal", "growth": "102% (inactive)"}

Give growth only, for "Cn1cnc([N+](=O)[O-])c1S(=O)(=O)Oc1ccccc1" , using 786-0 renal data.
95.2% (inactive)

Give growth only, for "O=C(CC(=O)C(F)(F)C(F)(F)C(F)(F)F)c1cc2ccccc2o1" , using 786-0 renal data.
98.4% (inactive)

Give growth only, for C=CCOC(=O)C1=C(C)NC2=C(C(=O)CCC2)C1c1ccc(F)cc1 (stereo not given) , using 786-0 renal data.
99.9% (inactive)

Give growth only, for "Cc1ccc(NC(=O)c2cc(NCc3cc(O)ccc3O)ccc2O)cc1" , using 786-0 renal data.
101% (inactive)

Give growth only, for "CCN(CC)CCNC(=O)n1cc(-c2ccncc2)c(-c2ccc(Cl)c(OC)c2)n1" , using 786-0 renal data.
72% (inactive)

----------
- System: SNB-75 CNS
- method-description: NCI-60 one-dose screen, 48 h (100 = growth as untreated, 0 = no growth, -100 = all killed)
- measurement-parameters: 10 µM unless noted
Compounds without any hit were thinned out: in the full panel of roughly 83,000, 20% have a hit.
growth reference
Give the value in % but do not write % after it.

{"molecule": "COc1cc(C)c(Cl)cc1C1=NN(c2ccc(S(N)(=O)=O)cc2)C(/C=C/c2ccccc2)C1 (centres undefined)", "growth [%]": 65.2}
{"molecule": "O=[N+]([O-])c1ccc(N/N=C\\c2ccc(O)cc2O)nc1", "growth [%]": 53.6}
{"molecule": "O=C(Nc1cccc(-n2ccc3c(NC(=O)c4ccccc4)nccc32)c1)c1ccc(Cl)c(Cl)c1", "growth [%]": 2.32}
{"molecule": "CC(C)CCC(=O)[C@@H](C)[C@H]1[C@@H](OC2OCC(O)C(O)C2NS(C)(=O)=O)C[C@H]2[C@@H]3CC=C4C[C@@H](O)CC[C@]4(C)[C@H]3CC[C@]12C (some centres undefined)", "growth [%]": 22.2}
{"molecule": "Cc1nn(-c2ccccc2)c2nc3c(nc12)C1=NCCN1C(c1ccc(Cl)cc1)N3 (centres undefined)", "growth [%]": 62.1}
{"molecule": "CN1C(=O)C(C(=O)/C=C/c2ccccc2C(=O)O)C(=O)N(C)C1=O", "growth [%]": 86.7}

Recall and state the measured growth for "O=c1c2cc(Br)cc(Br)c2nc(-c2ccc(Cl)cc2)n1/N=C/c1cccc(F)c1" .
-0.938

Recall and state the measured growth for "O=C(c1ccccc1)C(CCc1ccccn1)CCc1ccccn1" .
106

Recall and state the measured growth for CCSCC1CC(O)(c2ccccc2)C(c2ccccc2)C(c2ccc(F)cc2)O1 (centres undefined) .
-14

----------
growth reference
- Test system: HS 578T breast
- method-description: NCI-60 one-dose screen, 48 h (100 = growth as untreated, 0 = no growth, -100 = all killed)
- measurement-parameters: 10 µM unless noted
The panel holds about 83,000 compounds, 20% with a hit somewhere; the sample as a whole holds those more often.
Give the value in % but do not write % after it.

Sample answers from the record:
{"molecule": "CCOC(=O)c1cnc(SCC)nc1SC#N", "study-target": "HS 578T breast", "units-symbol": "%", "growth": 121}
{"molecule": "CNCCCn1c2c(c3ccc(Cl)cc3c1=O)C(=O)c1cc(OC)cnc1-2", "study-target": "HS 578T breast", "units-symbol": "%", "growth": 71.7}
{"molecule": "CCN1C(=O)C(C)C=C(C)C=C1C (stereo unspecified)", "study-target": "HS 578T breast", "units-symbol": "%", "growth": 102}
{"molecule": "C=C[C@H]1CCC/C=C/[C@@H]2C[C@H](O)C[C@H]2[C@H](O)/C=C/C(=O)O1", "study-target": "HS 578T breast", "units-symbol": "%", "growth": 18.8}
{"molecule": "CCOC(=O)Nc1ccc2nc(Sc3ccc(Cl)cc3)sc2c1", "study-target": "HS 578T breast", "units-symbol": "%", "growth": 50.8}

Recall and state the measured growth for "O=[N+]([O-])c1ccc(N/N=C\c2ccc(O)cc2O)nc1" .
90.8

----------
- Tested on: SK-OV-3 ovarian
- method-description: NCI-60 one-dose screen, 48 h (100 = growth as untreated, 0 = no growth, -100 = all killed)
- measurement-parameters: 10 µM unless noted
Compounds without any hit were thinned out: in the full panel of roughly 83,000, 20% have a hit.
growth reference
Give the value in % but do not write % after it.

Sample answers from the record:
{"compound": "O=C(O)c1cc2cc(OCc3ccccc3)ccc2[nH]1", "units-symbol": "%", "growth": 94.7}
{"compound": "O=C(Nc1cccc(Cl)c1)Nc1ccccc1Cl", "units-symbol": "%", "growth": 101}
{"compound": "C=CCN1C(=O)/C(=c2\\sc3n(c2=O)C2C(NN=3)N(CC)C(=O)N2CC)c2ccccc21 (stereo unspecified)", "units-symbol": "%", "growth": 34.2}

Recall and state the measured growth for "COc1cc(OC)c(Cl)cc1N" .
100

Recall and state the measured growth for CN1C(=O)N(C)C2C1NN=c1s/c(=C\c3ccc(C(F)(F)F)cc3)c(=O)n12 (stereo unspecified) .
32.1

Recall and state the measured growth for "C#C[C@]1(O)CC[C@H]2[C@@H]3CC=C4c5sc(-c6cccc(Br)c6)nc5CC[C@]4(C)[C@H]3CC[C@@]21C" .
95.9

Recall and state the measured growth for "O=C(NNC(=O)c1cccc(Cl)c1)c1ccccc1" .
114

Recall and state the measured growth for "Cc1cc(N)cc(C)c1-c1c(Br)cc(N)cc1Br" .
6.33

Recall and state the measured growth for COc1ccc(C2NC(=O)c3cc4c(cc3N2)OCO4)cc1 (stereo unspecified) .
-7.72

Recall and state the measured growth for "N=C(N)c1ccc(-c2ccc(-c3ccco3)o2)cc1F" .
40.1

Recall and state the measured growth for "CC(C)c1nc2ccccc2n1CC(=O)N/N=C/c1cccc(O)c1" .
93.2

Recall and state the measured growth for CCSCC1CC(O)(c2ccccc2)C(c2ccccc2)C(c2ccc(F)cc2)O1 (stereo unspecified) .
6.98

Recall and state the measured growth for "Cc1ccc(OC2=C(C#N)C(=N)N3C(=NN2)Sc2c(C)ccc(C)c23)cc1" .
96.2

Recall and state the measured growth for "CN(C)CCNC(=O)n1cc(-c2ccncc2)c(-c2cc(O)cc(Cl)c2)n1" .
90.8

----------
- System: NCI-H460 lung
- method-description: NCI-60 one-dose screen, 48 h
- measurement-parameters: 10 µM unless noted
The panel holds about 83,000 compounds, 20% with a hit somewhere; the sample as a whole holds those more often. Active and inactive are the calls of the source. How the source made its calls: active means growth percent below 10; inactive means the rest.
Respond using exactly one of the listed classes: active, inactive

Here are 6 molecules together with their reported answers.
{"molecule": "Fc1cc(-c2cnc3nonc3n2)c(Cl)cc1Cl", "assigned-class": "inactive"}
{"molecule": "Cc1ccccc1C1CC(=O)c2ccccc2C1C (stereo not drawn)", "assigned-class": "inactive"}
{"molecule": "CN(C)CC(=O)c1ccc2cc(Br)c3ccccc3c2c1", "assigned-class": "inactive"}
{"molecule": "O=C(Nc1ccncc1)C(=O)c1cn(S(=O)(=O)c2cccc(Cl)c2F)c2ccccc12", "assigned-class": "inactive"}
{"molecule": "Cc1ccncc1NC=O", "assigned-class": "inactive"}
{"molecule": "CCN(C(=O)CCl)C(C)(C)C(SSSC(c1ccc(Cl)cc1)C(C)(C)N(CC)C(=O)CCl)c1ccc(Cl)cc1 (stereo not drawn)", "assigned-class": "inactive"}

Outcome? "COc1cc(OC)c2sc(-c3ccc(-n4cncc4-c4ccc(OC)c(N)c4)cc3)nc2c1"
inactive

Outcome? "O=C(/C=C/c1ccco1)c1ccccc1O"
inactive

Outcome? COc1cc(C2CC(c3ccc(Cl)cc3)=NN2C(C)=O)ccc1Oc1nc2c(c(=O)n(C)c(=O)n2C)n1C (stereo not drawn)
inactive
